Assay: Stability of a-substituted glycine peptides in aqueous buffer (Ellman colorimetric assay)
Format: physicochemical
Settings: 0.2 M phosphate buffer (pH 7.0), no enzyme; read-out: stable (t)
The following compounds are shown together with reported half-life values.

                                   compound  recorded_value
0  C[C@H](N)C(=O)NC(Sc1ccccc1)C(=O)O (some centres unmarked)        > 83.3 h

Let us examine a further case.
In: Please give the documented half-life of C[C@H](N)C(=O)NC(SCCNc1cc(C(=O)O)nc(C(=O)O)c1)C(=O)O (some centres unmarked)
Out: > 83.3 h

Data provenance: patent EP0094815B1
